Parameter: Percentage of the compound remaining in plasma. Scope: all listed entries.
assay: Stability in dog plasma; type: in vitro ADME; conditions: 37° C., 15 minutes
recorded.metric: Percentage of the compound remaining in plasma

compound: CCC(CC)C(=O)OC(C)Oc1ccc([N+](=O)[O-])c2cccnc12 (stereo not drawn)
measured: 103.7%
//
compound: CC(C)(C)C(=O)OCOc1ccc([N+](=O)[O-])c2cccnc12 [Compound 4, (5-nitroquinolin-8-yloxy)methyl pivalate]
measured: 80.0%
//
compound: CC(C)OC(=O)[C@H](C)NP(=O)(OCOc1ccc([N+](=O)[O-])c2cccnc12)Oc1ccccc1 (stereo partly drawn)
measured: 98.3%

====

assay: Stability in monkey plasma; type: in vitro ADME; conditions: 37° C., 30 minutes
Parameter: Percentage of the compound remaining in plasma. Scope: all listed entries.
recorded.metric: Percentage of the compound remaining in plasma (%)

compound: CCC(CC)C(=O)OC(C)Oc1ccc([N+](=O)[O-])c2cccnc12 (stereo not drawn)
measured: 87.0
--
compound: CCC(CC)C(=O)OCOc1ccc([N+](=O)[O-])c2cccnc12
measured: 0.0
--
compound: CN1CCN(C(=O)OCOc2ccc([N+](=O)[O-])c3cccnc23)CC1
measured: 101.1
--
compound: O=[N+]([O-])c1ccc(O)c2ncccc12
measured: 104.0
--
compound: CC(C)(C)C(=O)OCOc1ccc([N+](=O)[O-])c2cccnc12 [Compound 4, (5-nitroquinolin-8-yloxy)methyl pivalate]
measured: 0.3
--
compound: O=C(OCOc1ccc([N+](=O)[O-])c2cccnc12)N1CCOCC1
measured: 105.9

====

experiment: Stability in dog liver microsome; conditions: without coenzyme, 2 μM, 37° C., 30 minutes
Parameter: Percentage of the compound remaining in dog liver microsome. Scope: all listed entries.
recorded.metric: Percentage of the compound remaining in dog liver microsome (%)

molecule: O=C(OCOc1ccc([N+](=O)[O-])c2cccnc12)N1CCOCC1
display.unit: %
measured: 83.78
//
molecule: CC(C)(C)OC(=O)N[C@@H](Cc1ccccc1)C(=O)OCOc1ccc([N+](=O)[O-])c2cccnc12
display.unit: %
measured: 0.02
//
molecule: CCC(CC)C(=O)OCOc1ccc([N+](=O)[O-])c2cccnc12
display.unit: %
measured: 4.06
//
molecule: CN1CCN(C(=O)OCOc2ccc([N+](=O)[O-])c3cccnc23)CC1
display.unit: %
measured: 114.53
//
molecule: O=C(CCCCC(=O)OCOc1ccc([N+](=O)[O-])c2cccnc12)OCOc1ccc([N+](=O)[O-])c2cccnc12
display.unit: %
measured: 0.03
//
molecule: CC(C)OC(=O)[C@H](C)NP(=O)(OCOc1ccc([N+](=O)[O-])c2cccnc12)Oc1ccccc1 (stereo partly shown)
display.unit: %
measured: 48.90
//
molecule: CC(C)C(=O)OCOc1ccc([N+](=O)[O-])c2cccnc12
display.unit: %
measured: 0.19
//
molecule: CC(C)(C)OP(=O)(OCOc1ccc([N+](=O)[O-])c2cccnc12)OC(C)(C)C
display.unit: %
measured: 90.90
//
molecule: CC(=O)OC(C)Oc1ccc([N+](=O)[O-])c2cccnc12 (stereo not shown) [Compound 47, 1-(5-nitroquinolin-8-yloxy)ethyl acetate]
display.unit: %
measured: 0.02
//
molecule: CC(C)C(=O)N1CCC[C@H]1C(=O)OCOc1ccc([N+](=O)[O-])c2cccnc12
display.unit: %
measured: 53.50
//
molecule: CCC(NC(=O)OCOc1ccc([N+](=O)[O-])c2cccnc12)C(=O)OC (stereo not shown)
display.unit: %
measured: 70.31
//
molecule: CCC(C)C(NC(=O)OCOc1ccc([N+](=O)[O-])c2cccnc12)C(=O)OC (stereo not shown)
display.unit: %
measured: 84.65
//
molecule: CC(=O)OCOc1ccc([N+](=O)[O-])c2cccnc12 [Compound 1, (5-nitroquinolin-8-yloxy)methyl acetate]
display.unit: %
measured: 0.73
//
molecule: CC(C)(C)OC(=O)NCCCCCCC(=O)OCOc1ccc([N+](=O)[O-])c2cccnc12
display.unit: %
measured: 0.02
//
molecule: CCC(CC)C(=O)OC(C)Oc1ccc([N+](=O)[O-])c2cccnc12 (stereo not shown)
display.unit: %
measured: 0.28
//
molecule: COC(=O)CN(C)C(=O)Oc1ccc([N+](=O)[O-])c2cccnc12
display.unit: %
measured: 75.50
